Molecular target: mouse TAAR1 (Mus musculus (Mouse))
Sequence (Q923Y8 whole entry): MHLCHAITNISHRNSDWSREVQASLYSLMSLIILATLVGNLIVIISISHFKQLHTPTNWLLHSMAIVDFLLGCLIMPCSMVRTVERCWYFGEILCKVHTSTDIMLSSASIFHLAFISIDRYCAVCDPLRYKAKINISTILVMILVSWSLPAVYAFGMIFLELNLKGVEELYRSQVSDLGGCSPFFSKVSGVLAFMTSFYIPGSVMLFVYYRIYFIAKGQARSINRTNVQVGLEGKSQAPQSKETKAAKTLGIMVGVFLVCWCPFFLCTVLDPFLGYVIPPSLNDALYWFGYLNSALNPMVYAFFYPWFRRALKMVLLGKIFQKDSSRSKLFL
Assay: Radioligand binding assay on mouse TAAR1
Conditions: mouse TAAR1, membranes of stably transfected HEK-293 cells; first value of mouse/rat pair
Property label: Ki (µM)
Quick reminder: number only, in µM, skip the unit.

Which Ki value is on record for CCc1n[nH]c(C(=O)Nc2ccc3c(c2)CC[C@H](N)C3)c1C [Example 51] ?
0.0062

Lookup CCOc1ccc(NC(=O)c2ccc3c(c2)CCC(N)C3)cn1 (centres unmarked) [Example 31]
0.0247

Entry to check: N[C@H]1CCc2cc(Nc3cccc(OC(F)(F)F)c3)ccc2C1 [Example 61]
0.0071

Can you handle N[C@H]1CCc2cc(NC(=O)c3ccc(F)c(F)c3)ccc2C1 [Example 42] next?
0.0035

And what about the compound N[C@H]1CCc2cc(NC(=O)c3ccc(OCC(F)(F)F)nc3)ccc2C1 [Example 22] ?
0.0033

* * *

Target: mouse TAAR1 (Mus musculus (Mouse))
Assay: Radioligand binding assay on mouse TAAR1
Settings: mouse TAAR1, membranes of stably transfected HEK-293 cells; first value of mouse/rat pair
Please assign Condition not met whenever Ki is at or above 0.008 µM, and Condition met whenever it is below.

Report whether reported Ki is lower than 0.008 µM (strictly) for N#Cc1ccc(C(=O)Nc2ccc3c(c2)OC[C@H](N)C3)cc1F
Condition met

Repeat with Cc1cc(C(=O)Nc2ccc3c(c2)CC[C@@H](N)C3)nc(C(F)(F)F)n1
Condition not met

And what about the molecule NC1CCc2cc(C(=O)Nc3cnc(C4CC4)nc3)ccc2C1 (stereo not drawn) ?
Condition not met

Repeat with N[C@H]1CCc2cc(Nc3ccc(C4CC4)cc3)ccc2C1
Condition not met

Ok, now NC1CCc2cc(C(=O)NCc3ccc(C(F)(F)F)cc3)ccc2C1 (stereo not drawn)
Condition met

Same question for NC1CCc2cc(C(=O)Nc3ccc(Cl)cc3)ccc2C1 (stereo not drawn) please.
Condition not met

One more molecule: N[C@H]1COc2cc(Nc3ncc(C(F)(F)F)cn3)ccc2C1
Condition not met

Also NC1CCc2cc(C(=O)Nc3cccc(Cl)c3)ccc2C1 (stereo not drawn) , if possible.
Condition met

* * *

Target: rat TAAR1 (Rattus norvegicus (Rat))
Sequence (Q923Y9 whole entry): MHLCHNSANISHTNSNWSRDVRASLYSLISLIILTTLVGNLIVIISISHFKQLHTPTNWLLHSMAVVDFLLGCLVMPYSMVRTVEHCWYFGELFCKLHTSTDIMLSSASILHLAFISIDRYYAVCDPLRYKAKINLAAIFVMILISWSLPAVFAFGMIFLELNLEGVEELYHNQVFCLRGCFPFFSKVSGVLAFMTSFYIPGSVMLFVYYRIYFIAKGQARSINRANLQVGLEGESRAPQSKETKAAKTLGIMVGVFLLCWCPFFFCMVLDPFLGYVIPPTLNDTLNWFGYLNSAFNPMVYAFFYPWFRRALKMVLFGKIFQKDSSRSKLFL
Experiment: Radioligand binding assay on rat TAAR1
Conditions: rat TAAR1, membranes of stably transfected HEK-293 cells; second value of mouse/rat pair
Property label: Ki (µM)
All answers are understood in µM, so give the number only.

// returns reported Ki for input CCCc1cc(C(=O)Nc2ccc3c(c2)OC[C@@H](N)C3)nn1CC(F)F [Example 11]
0.0096

Query COc1ccc(C(=O)Nc2ccc3c(c2)CC[C@H](N)C3)cn1 [Example 21] next
0.0513

Input Cc1cc(C(=O)Nc2ccc3c(c2)OC[C@@H](N)C3)nc(C(F)(F)F)n1 [Example 13]
0.241

Same lookup for Cc1cc(C(=O)Nc2ccc3c(c2)OCC(N)C3)nc(C(F)(F)F)n1 (stereo not shown) [Example 9] , please.
0.114

Another: N[C@H]1CCc2cc(NC(=O)c3ccc(C(F)(F)F)nc3)ccc2C1 [Example 20]
0.0237

Record: NC1CCc2cc(C(=O)NCc3ccc(C(F)(F)F)cc3)ccc2C1 (stereo not shown) [Example 35]
0.035

Same question, NC1CCc2cc(C(=O)Nc3cnc(C4CC4)nc3)ccc2C1 (stereo not shown) [Example 32] this time
0.309

Now consider N[C@H]1COc2cc(NC(=O)c3nccc(Cl)n3)ccc2C1 [Example 82] and answer again.
0.511

Again, but for Cc1ccc(-n2cc(C(=O)Nc3ccc4c(c3)CC[C@H](N)C4)cn2)cc1 [Example 27]
0.0037

Can you check CCc1n[nH]c(C(=O)Nc2ccc3c(c2)CC[C@H](N)C3)c1C [Example 51] next?
0.0046

Proceed to NC1CCc2cc(C(=O)Nc3cccc(Cl)c3)ccc2C1 (stereo not shown) [Example 59]
0.0109

Can you handle CCc1ccc(Nc2ccc3c(c2)CC[C@H](N)C3)cc1 [Example 53] next?
0.0083

How about this compound: N[C@H]1CCc2cc(NC(=O)c3cnc(Cl)c(Cl)c3)ccc2C1 [Example 41]
0.0031

Do the same for Cn1nc(C(=O)Nc2ccc3c(c2)OC[C@H](N)C3)cc1-c1cccs1 [Example 85] please
0.0061

One more compound: CC(=O)Nc1cc(C(=O)Nc2ccc3c(c2)CC[C@H](N)C3)ccn1 [Example 18]
0.232

Another compound: COc1cccc(NC(=O)Nc2ccc3c(c2)CC[C@H](N)C3)c1 [Example 67]
0.0044

Please do the same for Cc1cc(C(=O)Nc2ccc3c(c2)OC[C@H](N)C3)cc(Cl)n1 [Example 89] as well.
0.0243

Now consider NC1CCc2cc(C(=O)Nc3ccc(Cl)cc3)ccc2C1 (stereo not shown) [Example 57] .
0.0142

Next: CCn1nc(C(=O)Nc2ccc3c(c2)CC[C@H](N)C3)c(Br)c1OCC(F)F [Example 52]
0.0016
